Assay: chemical genetic growth profiling, strain panel (AID 1159580);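 note: tested at 20 µM; growth read once vehicle control cultures reached saturation at 30 °C; 1 = growth at the plate median or of vehicle wells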
Settings: S. cerevisiae deletion strains, growth OD, locus YMR125W, strain sto1, stronger effect = lower value
Hit rate of the full screen: of about 5,500 compounds, about 2,000 (36%) were called active. Roughly 18% stayed inconclusive and do not appear here. The list shows a part of the results.
Please provide measured normalized growth for the entries that follow.
Numbers only.

- COMPOUND: "CC1=C(/C=C/C(C)=C/C=C/C(C)=C/CO)C(C)(C)CCC1"
  normalized growth: 1.02
- COMPOUND: "CCC(COC(=O)c1cc(OC)c(OC)c(OC)c1)(c1ccccc1)N(C)C (stereo not given)"
  normalized growth: 0.97
- COMPOUND: "CCOP(=S)(OCC)Oc1ccc2c(C)c(Cl)c(=O)oc2c1"
  normalized growth: 0.97
- COMPOUND: "CC(=O)OCC(=O)[C@@]12OC(C)(C)O[C@@H]1CC1C3C[C@H](F)C4=CC(=O)C=C[C@]4(C)[C@@]3(F)[C@@H](O)C[C@@]12C (stereo not given in full)"
  normalized growth: 1.03
- COMPOUND: "CC[C@]12CCCN3CCc4c(n(c5ccccc45)[C@](O)(C(=O)OC)C1)[C@@H]32"
  normalized growth: 0.98

For every listed record, write down its normalized growth.
1. CC[C@]12CCCN3CCc4c(n(c5ccccc45)C(=O)C1)[C@@H]32
2. CC(=O)O[C@H]1CC[C@@]2(C)C(=CCC3C2CC[C@]2(C)C(=O)CCC32)C1 (stereo not given in full)
3. O=C1O[C@@H](CO)[C@H](O)[C@@H](O)[C@@H]1O
4. CCCN(CCC)CCc1cccc2c1CC(=O)N2
5. Cc1ccc(C(C)C)cc2c(C)ccc1-2

[0.994, 1.05, 1.02, 0.967, 1]

* * *

Please provide measured normalized growth for the entries that follow.
Assay: chemical genetic growth profiling, strain panel (AID 1159580)
Settings: S. cerevisiae deletion strains, growth OD, locus YGR135W, strain pre9, stronger effect = lower value
Among all 5,500 compounds or so, about 2,000 (36%) were called active. About 18% were inconclusive and are not listed. This is one part of the list.
Give bare numbers.

The following molecules have reported results that may help.
- MOLECULE: "COc1ccc(C[C@H](N)C(=O)N[C@@H]2[C@@H](CO)OC(n3cnc4c(N(C)C)ncnc43)[C@@H]2O)cc1 (stereo partly drawn)"
  QUANTITY KIND: "normalized growth"
  NUMERIC RESULT: 1
- MOLECULE: "COc1cc(C(=O)O)c(O)c2c1OCO2"
  QUANTITY KIND: "normalized growth"
  NUMERIC RESULT: 0.996

Switching to the query record.
Could you tell me which normalized growth is on file for "C=CC1=C(C)/C(=C/c2[nH]c(Cc3[nH]c(/C=C4\NC(=O)C(C)=C4C=C)c(C)c3CCC(=O)O)c(CCC(=O)O)c2C)NC1=O" ? 0.993

* * *

Experiment: chemical genetic growth profiling, strain panel (AID 1159580);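 note: tested at 20 µM; growth read once vehicle control cultures reached saturation at 30 °C; 1 = growth at the plate median or of vehicle wells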
Conditions: S. cerevisiae deletion strains, growth OD, locus YKL067W, strain YNK1, stronger effect = lower value
Among all 5,500 compounds or so, about 2,000 (36%) were called active. Inconclusive results (about 18%) are left out. The list shows a part of the results.
Classify: Fulfilled when normalized growth is strictly less than 0.9; Not fulfilled when normalized growth is not.

Check out these entries, answers already filled in.
- CHEMICAL STRUCTURE: "CC(=O)C(Sc1nc2ccccc2s1)C(C)=O"
  ANSWER LABEL: "Fulfilled"
- CHEMICAL STRUCTURE: "CSc1cccc(N2C(=O)CC(c3c(Cl)cccc3Cl)CC2=O)c1"
  ANSWER LABEL: "Not fulfilled"
- CHEMICAL STRUCTURE: "CSc1c(C#N)c(-c2ccc(Cl)cc2)nn1C(=O)c1ccccc1Cl"
  ANSWER LABEL: "Not fulfilled"
- CHEMICAL STRUCTURE: "O=C(CCSc1cccs1)Nc1cccc(C(F)(F)F)c1"
  ANSWER LABEL: "Not fulfilled"
- CHEMICAL STRUCTURE: "COc1cc(N=Cc2cc(Cl)cc(Cl)c2OC(=O)c2cc(OC)c(OC)c(OC)c2)c(OC)cc1Cl"
  ANSWER LABEL: "Fulfilled"

Hi there! Is normalized growth for "COc1cc(C(=O)Oc2c(Cl)cc(Cl)cc2C=Nc2ccc([N+](=O)[O-])cc2C#N)cc(OC)c1OC" below 0.9, do you know? Fulfilled

* * *

Assay: chemical genetic growth profiling, strain panel (AID 1159580);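 note: tested at 20 µM; growth read once vehicle control cultures reached saturation at 30 °C; 1 = growth at the plate median or of vehicle wells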
Settings: S. cerevisiae deletion strains, growth OD, locus YNR049C, strain mso1, stronger effect = lower value
Screen size: about 5,500 compounds; about 2,000 (36%) were called active. About 18% were inconclusive and are not listed. The list shows a part of the results.
QUANTITY KIND: normalized growth
Answers are plain numbers.

The following molecules have reported results that may help.
- MOLECULE: "c1ccc(-c2ccc(C(c3ccccc3)n3ccnc3)cc2)cc1 (stereo not given)"
  NUMERIC RESULT: 0.0653
- MOLECULE: "CC(=O)OCC(=O)[C@@]12OC(C)(C)O[C@@H]1CC1C3C[C@H](F)C4=CC(=O)C=C[C@]4(C)[C@@]3(F)[C@@H](O)C[C@@]12C (stereo not given in full)"
  NUMERIC RESULT: 1.02
- MOLECULE: "NC(=O)c1cnccn1"
  NUMERIC RESULT: 0.998
- MOLECULE: "COc1ccc(CN(CCN(C)C)c2ncccn2)cc1"
  NUMERIC RESULT: 1.01
- MOLECULE: "Cc1ccc(C(C)C)cc2c(C)ccc1-2"
  NUMERIC RESULT: 1

For every listed record, write down its normalized growth.
1. COc1ccc2c(c1O)-c1c(OC)c(OC)cc3c1[C@H](C2)N(C)CC3
2. CC[C@]12CCCN3CCc4c(n(c5ccccc45)C(=O)C1)[C@@H]32
3. CC[C@]12CCCN3CCc4c(n(c5ccccc45)[C@](O)(C(=O)OC)C1)[C@@H]32
4. CC1=C(/C=C/C(C)=C/C=C/C(C)=C\C(=O)O)C(C)(C)CCC1
5. COc1ccc(/C=C/C(=O)O)cc1OC
6. CC1=C(/C=C/C(C)=C/C=C/C(C)=C/C(=O)O)C(C)(C)CCC1
7. COc1cc(/C=C/C(=O)O)ccc1O

1: 0.987; 2: 1.01; 3: 0.978; 4: 0.988; 5: 0.99; 6: 1.01; 7: 1.01

For every listed record, write down its normalized growth.
1. CC[C@]1(O)CC2CN(CCc3c([nH]c4ccccc34)[C@@](C(=O)OC)(c3cc4c(cc3OC)N(C=O)[C@H]3[C@@](O)(C(=O)OC)[C@H](OC(C)=O)[C@]5(CC)C=CCN6CC[C@]43[C@@H]65)C2)C1 (stereo not given in full)
2. Nc1nc(N)c2nc(CNc3ccc(C(=O)NC(CCC(=O)O)C(=O)O)cc3)cnc2n1 (stereo not given)

1: 0.975; 2: 0.987

For every listed record, write down its normalized growth.
1. COC(=O)[C@H]1[C@H]2C[C@@H]3c4[nH]c5cc(OC)ccc5c4CCN3C[C@H]2C[C@@H](OC(=O)c2cc(OC)c(OC)c(OC)c2)[C@@H]1OC
2. Nc1nc2c(c(=O)[nH]1)N(C=O)C(CNc1ccc(C(=O)N[C@@H](CCC(=O)O)C(=O)O)cc1)CN2 (stereo not given in full)
3. COP(=S)(OC)Oc1ccc(SC)c(C)c1

0.972
0.971
1

For every listed record, write down its normalized growth.
1. COc1ccc(/C=C/C(=O)c2cc(O)ccc2O)cc1
2. CCOC(=O)C1=C[C@]2(CC)CCCN3CCc4c(n1c1ccccc41)[C@@H]32
3. CN(Cc1cnc2nc(N)nc(N)c2n1)c1ccc(C(=O)NC(CCC(=O)O)C(=O)O)cc1 (stereo not given)

[0.594, 1.02, 0.921]

* * *

Assay: chemical genetic growth profiling, strain panel (AID 1159580);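 note: tested at 20 µM; growth read once vehicle control cultures reached saturation at 30 °C; 1 = growth at the plate median or of vehicle wells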
Settings: S. cerevisiae deletion strains, growth OD, locus YLR258W, strain gsy2
About 2,000 (36%) of roughly 5,500 compounds were called active. Inconclusive results (about 18%) are left out. Cut-off read from the data, not from the text of the source: active = normalized growth mostly below about 0.91 (no sharp cut-off); inconclusive = no clear call, values can overlap the other calls; inactive = mostly above about 0.92. The list shows a part of the results.
The categories you may choose from are t for active, f for inactive

Check out these entries, answers already filled in.
- MOLECULE: "C[C@@H]1C[C@@H]([C@H](O)CC2CC(=O)NC(=O)C2)C(=O)[C@@H](C)C1"
  ANSWER LABEL: "t"
- MOLECULE: "O=C(O)CNCP(=O)(O)O"
  ANSWER LABEL: "f"
- MOLECULE: "COc1cc2c(cc1O)CC1c3c(cc(O)c(OC)c3-2)CCN1C (centres undefined)"
  ANSWER LABEL: "f"

Recorded test outcome, item "CS(=O)(=O)OCCCCOS(C)(=O)=O" f

Request: "COS(C)(=O)=O" f

Request: CC1(C)C2CC(=O)O[C@@]3(C)C4=CC(=O)O[C@@H](c5ccoc5)[C@]4(C)CCC3[C@@]2(C)C=C[C@H]1O (some centres undefined) f

Request: "CO[C@@H]1[C@@H](O[C@@H]2O[C@H](C)[C@@H](O[C@H]3C[C@@](C)(O)[C@H](O)[C@H](C)O3)[C@H](N(C)C)[C@H]2O)[C@@H](CC=O)C[C@@H](C)[C@@H](O[C@H]2CC[C@H](N(C)C)[C@@H](C)O2)/C=C/C=C/C[C@H](C)OC(=O)C[C@H]1O" f
